TARGET_OR_SYSTEM: PAS of EeAChE (Electrophorus electricus, UniProt O42275)
Construct: AChE from Electrophorus electricus (EeAChE, type VI-S, lyophilized powder); purchased Sigma-Aldrich type VI-S; host or cells: Electrophorus electricus tissue
Sequence (O42275 24-633): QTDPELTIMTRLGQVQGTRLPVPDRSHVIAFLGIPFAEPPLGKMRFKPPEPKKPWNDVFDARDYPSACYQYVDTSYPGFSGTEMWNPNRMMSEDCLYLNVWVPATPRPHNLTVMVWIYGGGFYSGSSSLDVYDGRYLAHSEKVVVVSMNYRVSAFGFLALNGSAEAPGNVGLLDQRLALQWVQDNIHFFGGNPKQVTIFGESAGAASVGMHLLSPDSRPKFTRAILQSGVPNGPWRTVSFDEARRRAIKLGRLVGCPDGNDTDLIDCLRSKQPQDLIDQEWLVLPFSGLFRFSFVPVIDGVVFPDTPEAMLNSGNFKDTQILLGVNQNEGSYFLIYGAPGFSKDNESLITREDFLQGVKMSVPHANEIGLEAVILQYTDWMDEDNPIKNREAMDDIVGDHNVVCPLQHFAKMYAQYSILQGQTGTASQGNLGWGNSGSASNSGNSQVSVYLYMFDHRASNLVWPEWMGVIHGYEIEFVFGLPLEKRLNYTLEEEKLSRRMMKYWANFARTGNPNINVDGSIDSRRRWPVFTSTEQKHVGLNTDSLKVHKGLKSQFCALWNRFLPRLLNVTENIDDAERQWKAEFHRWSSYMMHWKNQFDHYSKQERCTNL
Type: binding
ASSAY_CONDITIONS: 20 µM compound; 7 µM EeAChE, 8 µM propidium iodide; mean ± SEM, n = 3
% of Displacement of Propidium Iodide from the PAS of EeAChE values, listed per item
Give the value, in units of %, as a plain number.

# COMPOUND, TARGET_OR_SYSTEM, NUMERIC_RESULT
measured = [
    ("CN1CCc2c(c3ccccc3n2CCNC23CC4CC(CC(C4)C2)C3)C1.Cl.Cl", "PAS of EeAChE (Electrophorus electricus, UniProt O42275)", 10.1),
    ("CN1CCc2c(c3cc(F)ccc3n2CCNC23CC4CC(CC(C4)C2)C3)C1.Cl.Cl", "PAS of EeAChE (Electrophorus electricus, UniProt O42275)", 17.8),
    ("Cc1ccc2c(c1)c1c(n2CC(=O)NC23CC4CC(CC(C4)C2)C3)CCN(C)C1.Cl", "PAS of EeAChE (Electrophorus electricus, UniProt O42275)", 1.2),
]

## Input Could you tell me which % of Displacement of Propidium Iodide from the PAS of EeAChE is on file for Cc1ccc2c(c1)c1c(n2CC(=O)NC23CC4CC(C)(CC(C)(C4)C2)C3)CCN(C)C1.Cl ?
## Output 2.8

## Input Could you tell me which % of Displacement of Propidium Iodide from the PAS of EeAChE is on file for CN1CCc2c(c3ccccc3n2CCNC23CC4CC(C)(CC(C)(C4)C2)C3)C1.Cl.Cl ?
## Output 12.5

## Input Could you tell me which % of Displacement of Propidium Iodide from the PAS of EeAChE is on file for Cc1ccc2c(c1)c1c(n2CCNC23CC4CC(CC(C4)C2)C3)CCN(C)C1.Cl.Cl ?
## Output 15.1

## Input Could you tell me which % of Displacement of Propidium Iodide from the PAS of EeAChE is on file for Cc1ccc2c(c1)c1c(n2CCc2ccc(C)nc2)CCN(C)C1 [dimebon, reference compound] ?
## Output 4.1

## Input Could you tell me which % of Displacement of Propidium Iodide from the PAS of EeAChE is on file for CN1CCc2c(c3ccccc3n2CC(=O)NC23CC4CC(CC(C4)C2)C3)C1.Cl ?
## Output 1.4

## Input Could you tell me which % of Displacement of Propidium Iodide from the PAS of EeAChE is on file for Cc1ccc2c(c1)c1c(n2CCNC23CC4CC(C)(CC(C)(C4)C2)C3)CCN(C)C1.Cl.Cl ?
## Output 14.7

## Input Could you tell me which % of Displacement of Propidium Iodide from the PAS of EeAChE is on file for CN1CCc2c(c3cc(F)ccc3n2CCNC23CC4CC(C)(CC(C)(C4)C2)C3)C1.Cl.Cl ?
## Output 13.1

// data source = paper PMC8471380
